// reported GI50 per item
- System: A549
- protocol.text: Cytotoxicity against human A549 cells assessed as cell growth inhibition for 72 hrs by MTT assay
- Assay type: functional
- test.parameters: Homo sapiens, A549, 72 h

GI50 for CC(C)[C@@H]1C2=C(Oc3c1c(O)cc1c3[C@@H](C(C)C)C3=C(O1)C(C)(C)C(=O)C(C)(C)C3=O)C(C)(C)C(=O)C(C)(C)C2=O is 27 µM

What the record says about COc1c(C(=O)C(C)C)c2c(c3c1[C@@H](C(C)C)C1=C(O3)C(C)(C)C(=O)C(C)(C)C1=O)[C@@H](C(C)C)C1=C(O2)C(C)(C)C(=O)C(C)(C)C1=O (racemic) : GI50 is 32 µM

* * *

- Test system: A549
- protocol.text: Cytotoxicity against human A549 cells assessed as cell growth inhibition for 72 hrs by MTT assay
- Format: functional
- test.parameters: Homo sapiens, A549, 72 h
GI50 listing for selected molecules.
Please give a number only; it is taken to be in µM.

Recorded result, CC(C)C(=O)c1c(O)c2c(c3c1OC1=C(C(=O)C(C)(C)C(=O)C1(C)C)[C@H]3C(C)C)OC1=C(C(=O)C(C)(C)C(=O)C1(C)C)[C@H]2C(C)C , GI50: 65

Entry under test: CC(COc1cc2c(c3c1[C@H](C(C)C)C1=C(O3)C(C)(C)C(=O)C(C)(C)C1=O)[C@@H](C(C)C)C1=C(O2)C(C)(C)C(=O)C(C)(C)C1=O)CN(C)C (stereo partly drawn) . Its GI50 was 46

Consider CC(C)[C@@H]1C2=C(Oc3c1c(OCCC1OCCO1)cc1c3[C@@H](C(C)C)C3=C(O1)C(C)(C)C(=O)C(C)(C)C3=O)C(C)(C)C(=O)C(C)(C)C2=O . Its measured GI50 is 21

* * *

- System: A549
- protocol.text: Cytotoxicity against human A549 cells assessed as cell growth inhibition for 72 hrs by MTT assay
- Type: functional
- test.parameters: Homo sapiens, A549, 72 h
Label y when GI50 is strictly below 40 µM; otherwise label n.

> print(dat)
                                   compound  label.class
1  CC(C)CCOc1cc2c(c3c1[C@H](C(C)C)C1=C(O3)C(C)(C)C(=O)C(C)(C)C1=O)[C@@H](C(C)C)C1=C(O2)C(C)(C)C(=O)C(C)(C)C1=O            y
2  COc1cc(O)c2c(c1C(=O)C(C)C)OC1=C(C(=O)C(C)(C)C(=O)C1(C)C)[C@H]2C(C)C            y
3  CC(C)C1C2=C(Oc3c1c(O)cc1c3C(C(C)C)C3=C(O1)C(C)(C)C(=O)C(C)(C)C3=O)C(C)(C)C(=O)C(C)(C)C2=O (racemic; form 1)            y

Is GI50 of CC(C)[C@@H]1C2=C(Oc3c1c(OCCCN1CCN(C)CC1)cc1c3[C@@H](C(C)C)C3=C(O1)C(C)(C)C(=O)C(C)(C)C3=O)C(C)(C)C(=O)C(C)(C)C2=O strictly below 40 µM?
n

Could you please tell me whether GI50 recorded for Cc1ccc(COc2cc3c(c4c2[C@H](C(C)C)C2=C(O4)C(C)(C)C(=O)C(C)(C)C2=O)[C@@H](C(C)C)C2=C(O3)C(C)(C)C(=O)C(C)(C)C2=O)cc1 is less than 40 µM?
y

# strict comparison: is reported GI50 < 40 µM? input = CCN(CC)CCCOc1cc2c(c3c1[C@H](C(C)C)C1=C(O3)C(C)(C)C(=O)C(C)(C)C1=O)[C@@H](C(C)C)C1=C(O2)C(C)(C)C(=O)C(C)(C)C1=O
n

* * *

- Tested on: A549
- protocol.text: Cytotoxicity against human A549 cells assessed as cell growth inhibition for 72 hrs by MTT assay
- Assay type: functional
- test.parameters: Homo sapiens, A549, 72 h
The following molecules are listed with their measured GI50 values.

molecule	GI50
COc1cc([C@@H]2c3cc4c(cc3[C@@H](O[C@@H]3O[C@@H]5CO[C@@H](C)O[C@H]5[C@H](O)[C@H]3O)[C@H]3COC(=O)[C@H]23)OCO4)cc(OC)c1O [ETOPOSIDE]	10 µM
CC(C)[C@@H]1C2=C(Oc3c1c(OCCCN1CCCC1)cc1c3[C@@H](C(C)C)C3=C(O1)C(C)(C)C(=O)C(C)(C)C3=O)C(C)(C)C(=O)C(C)(C)C2=O	50 µM
CC(C)[C@@H]1C2=C(Oc3c1c(OCCN1CCOCC1)cc1c3[C@@H](C(C)C)C3=C(O1)C(C)(C)C(=O)C(C)(C)C3=O)C(C)(C)C(=O)C(C)(C)C2=O	39.6 µM
CC(C)[C@@H]1C2=C(Oc3c1c(OCC(=O)N(C)C)cc1c3[C@@H](C(C)C)C3=C(O1)C(C)(C)C(=O)C(C)(C)C3=O)C(C)(C)C(=O)C(C)(C)C2=O	62 µM

Tested on A549, the item CC(C)[C@@H]1C2=C(Oc3c1c(OCCN1CCCC1)cc1c3[C@@H](C(C)C)C3=C(O1)C(C)(C)C(=O)C(C)(C)C3=O)C(C)(C)C(=O)C(C)(C)C2=O showed GI50 equal to 46 µM

* * *

# Lookup of reported GI50 keyed by entry
- Test system: A549
- protocol.text: Cytotoxicity against human A549 cells assessed as cell growth inhibition for 72 hrs by MTT assay
- Type: functional
- test.parameters: Homo sapiens, A549, 72 h
Numeric answer plus unit only.

For this compound ( CC(C)C(=O)c1c(O)c2c(c3c1OC1=C(C(=O)C(C)(C)C(=O)C1(C)C)[C@@H]3C(C)C)OC1=C(C(=O)C(C)(C)C(=O)C1(C)C)[C@H]2C(C)C ), measured GI50 is 62 µM

Lab note: COc1cc(O)c2c(c1C(=O)C(C)C)OC1=C(C(=O)C(C)(C)C(=O)C1(C)C)[C@@H]2C(C)C gave GI50 of 50 µM

Memo: CC(C)[C@@H]1C2=C(Oc3c1c(OCc1ccccc1)cc1c3[C@@H](C(C)C)C3=C(O1)C(C)(C)C(=O)C(C)(C)C3=O)C(C)(C)C(=O)C(C)(C)C2=O , reported GI50: 36 µM

* * *

Entries and their GI50 values follow.
- Test system: A549
- protocol.text: Cytotoxicity against human A549 cells assessed as cell growth inhibition for 72 hrs by MTT assay
- Format: functional
- test.parameters: Homo sapiens, A549, 72 h

# count of solved cases: 2
> print(dat)
                               smiles.entry  target.desc  endpoint.result
1  CCOc1cc2c(c3c1[C@H](C(C)C)C1=C(O3)C(C)(C)C(=O)C(C)(C)C1=O)[C@@H](C(C)C)C1=C(O2)C(C)(C)C(=O)C(C)(C)C1=O         A549            24 µM
2  CC(C)[C@@H]1C2=C(Oc3c1c(OCCCc1ccccc1)cc1c3[C@@H](C(C)C)C3=C(O1)C(C)(C)C(=O)C(C)(C)C3=O)C(C)(C)C(=O)C(C)(C)C2=O         A549            43 µM

Recorded GI50 (compound CC(C)Oc1cc2c(c3c1[C@H](C(C)C)C1=C(O3)C(C)(C)C(=O)C(C)(C)C1=O)[C@@H](C(C)C)C1=C(O2)C(C)(C)C(=O)C(C)(C)C1=O ): 33 µM

* * *

- target.desc: Tyrosyl-DNA phosphodiesterase 2 (Homo sapiens)
- Sequence (O95551 whole entry): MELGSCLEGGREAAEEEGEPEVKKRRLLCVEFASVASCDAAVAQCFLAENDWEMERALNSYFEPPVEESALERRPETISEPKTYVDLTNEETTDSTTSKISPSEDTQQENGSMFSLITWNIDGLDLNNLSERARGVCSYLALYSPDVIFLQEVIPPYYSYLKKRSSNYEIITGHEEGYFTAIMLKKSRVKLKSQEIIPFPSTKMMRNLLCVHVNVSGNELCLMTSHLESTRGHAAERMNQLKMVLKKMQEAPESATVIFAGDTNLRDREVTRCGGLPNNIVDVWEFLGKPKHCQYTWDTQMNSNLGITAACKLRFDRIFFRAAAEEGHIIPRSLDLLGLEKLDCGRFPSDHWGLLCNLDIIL
metric.name: IC50 (µM)
Note: unit µM is implicit; provide only the numeric part.

In the examples that follow, each entry is paired with its recorded IC50.
molecule	IC50 (µM)
CCOc1cc2c(c3c1[C@H](C(C)C)C1=C(O3)C(C)(C)C(=O)C(C)(C)C1=O)[C@@H](C(C)C)C1=C(O2)C(C)(C)C(=O)C(C)(C)C1=O	21
CC(C)[C@H]1C2=C(Oc3c1c(O)cc1c3[C@@H](C(C)C)C3=C(O1)C(C)(C)C(=O)C(C)(C)C3=O)C(C)(C)C(=O)C(C)(C)C2=O	32
CC(C)[C@@H]1C2=C(Oc3c1c(OCCCc1ccccc1)cc1c3[C@@H](C(C)C)C3=C(O1)C(C)(C)C(=O)C(C)(C)C3=O)C(C)(C)C(=O)C(C)(C)C2=O	26
CC(COc1cc2c(c3c1[C@H](C(C)C)C1=C(O3)C(C)(C)C(=O)C(C)(C)C1=O)[C@@H](C(C)C)C1=C(O2)C(C)(C)C(=O)C(C)(C)C1=O)CN(C)C (some centres undefined)	12
CC(C)C(=O)c1c(O)c2c(c3c1OC1=C(C(=O)C(C)(C)C(=O)C1(C)C)[C@H]3C(C)C)OC1=C(C(=O)C(C)(C)C(=O)C1(C)C)[C@@H]2C(C)C	50

The recorded IC50 for entry CCOC(CCCOc1cc2c(c3c1[C@H](C(C)C)C1=C(O3)C(C)(C)C(=O)C(C)(C)C1=O)[C@@H](C(C)C)C1=C(O2)C(C)(C)C(=O)C(C)(C)C1=O)OCC equals 41

Recorded result, CC(C)C(=O)c1c(O)c2c(c3c1OC1=C(C(=O)C(C)(C)C(=O)C1(C)C)[C@@H]3C(C)C)OC1=C(C(=O)C(C)(C)C(=O)C1(C)C)[C@H]2C(C)C , IC50: 39
